From: ChEMBL document CHEMBL3301361

Experiment: in vitro
Details: hepatocytes
Residues, ends and D or L forms follow the SMILES beside them.
Classification field: enter label 1 for hepatocyte CLint values not below 30 µL/min/1e6 cells, label 0 for values below it.

# check: hepatocyte CLint of "Cc1nn(C)c(C)c1-c1cccc2c(CCCOc3cccc4ccccc34)c(C(=O)O)[nH]c12" is greater than or equal to 30 µL/min/1e6 cells
label 1

Answer whether hepatocyte CLint of "Cc1cccc(C[C@@H](C(=O)O)N2CCC(CN3CCC(Oc4ccc(Cl)c(Cl)c4)CC3)CC2)c1" is greater than or equal to 30 µL/min/1e6 cells.
label 0

Please check the record "C[C@H]1CN(Cc2cc(Cl)ccc2OCC(=O)O)CCN1C(=O)Cc1ccc(F)cc1" and state if its hepatocyte CLint is at or above 30 µL/min/1e6 cells.
label 0

Evaluate "Cc1ccc(N2CC(COc3ccc(-c4noc(C)n4)cc3)C2)nn1" : hepatocyte CLint at minimum 30 µL/min/1e6 cells?
label 0

Hi, just wondering whether "N#C[C@]1(NC(=O)[C@@H](N)Cc2cccs2)C[C@H]1c1ccccc1" shows hepatocyte CLint of 30 µL/min/1e6 cells or higher.
label 1

Form field: hepatocyte CLint at least 30 µL/min/1e6 cells? Entry: CO[C@H]1C[C@@H]2CC[C@@H](C)[C@@](O)(O2)C(=O)C(=O)N2CCCC[C@H]2C(=O)O[C@H]([C@H](C)C[C@@H]2CC[C@@H](OC(=O)C(C)(CO)CO)[C@H](OC)C2)CC(=O)[C@H](C)/C=C(\C)[C@@H](O)[C@@H](OC)C(=O)[C@H](C)C[C@H](C)/C=C/C=C/C=C/1C [TEMSIROLIMUS]
label 1

Given CCCCCCCC(=O)N[C@@H](C)C(=O)N[C@H](C(=O)N[C@@H](CCN)C(=O)N[C@H]1CCNC(=O)[C@H]([C@@H](C)O)NC(=O)[C@H](CCN)NC(=O)[C@H](CCN)NC(=O)[C@H](CC(C)C)NC(=O)[C@@H](Cc2ccccc2)NC(=O)[C@H](CCN)NC1=O)[C@@H](C)O (HELM PEPTIDE1{[CCCCCCCC(=O)[*:2]].A.T.[Dab].[Dab].[Dab].[dF].L.[Dab].[Dab].T}$PEPTIDE1,PEPTIDE1,5:R3-11:R2$$$V2.0) , state whether its hepatocyte CLint is at least 30 µL/min/1e6 cells.
label 0

Hi, just wondering whether "O=C(Nc1cc(-c2ccnc(Nc3ccccc3)c2)ccn1)C1CCOCC1" shows hepatocyte CLint of 30 µL/min/1e6 cells or higher.
label 1

Entry "Cc1cccc(CN2CCC3(CC2)CCN(C(=O)c2ccccc2)CC3)c1" : is its hepatocyte CLint no less than 30 µL/min/1e6 cells?
label 0

For this compound, is measured hepatocyte CLint 30 µL/min/1e6 cells or higher? CC(C)OC(=O)C(C)(C)Oc1ccc(C(=O)c2ccc(Cl)cc2)cc1 [FENOFIBRATE]
label 1

Textbook exercise: given the entry "N#Cc1ccc(OC2CCN(C[C@H](O)CNC(=O)c3c[nH]c(=O)c4ccccc34)CC2)cc1Cl" , state whether its hepatocyte CLint is greater than or equal to 30 µL/min/1e6 cells.
label 0

Please tell me: is the compound "O=C(Nc1ccc(F)cc1)c1ccc(Cl)[n+]([O-])c1" at or over 30 µL/min/1e6 cells in terms of hepatocyte CLint?
label 1

Could you tell me if the measured hepatocyte CLint of "CCOc1ccc(-n2c([C@@H](C)N(CC3CCN(C)CC3)C(=O)Cc3ccc(F)c(C(F)(F)F)c3)nc3ncccc3c2=O)cc1" reaches 30 µL/min/1e6 cells or more?
label 0

Does "CC(C)N(CCCNC(=O)Nc1ccc(C(C)(C)C)cc1)C[C@H]1O[C@@H](n2cnc3c(N)ncnc32)[C@H](O)[C@@H]1O" have a reported hepatocyte CLint of at least 30 µL/min/1e6 cells?
label 0
